Origin of measurements: PubChem BioAssay

Target: Alpha-2C adrenergic receptor (Homo sapiens) (UniProt P18825)
Sequence (P18825 whole entry, looked up): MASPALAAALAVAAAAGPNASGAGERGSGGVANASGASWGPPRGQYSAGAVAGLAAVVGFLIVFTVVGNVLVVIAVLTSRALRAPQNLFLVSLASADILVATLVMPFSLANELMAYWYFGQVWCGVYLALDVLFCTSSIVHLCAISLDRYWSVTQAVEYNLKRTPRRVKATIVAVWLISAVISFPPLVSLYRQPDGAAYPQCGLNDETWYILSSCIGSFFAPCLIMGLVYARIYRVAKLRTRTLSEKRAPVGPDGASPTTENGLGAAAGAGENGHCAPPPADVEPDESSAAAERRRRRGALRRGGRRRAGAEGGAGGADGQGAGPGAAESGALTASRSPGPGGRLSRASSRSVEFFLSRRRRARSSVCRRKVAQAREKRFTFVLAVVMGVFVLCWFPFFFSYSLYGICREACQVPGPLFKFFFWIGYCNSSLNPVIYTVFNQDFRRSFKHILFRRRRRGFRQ
Experiment: compounds altering alpha2C-coupled GIRK flux – cell-based, HEK293 alpha2C/GIRK1/2, thallium flux, primary screen (AID 624);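 note: slope of fluorescence ratio to pre-addition baseline per second over 15 to 24 s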
Conditions: thallium flux BTC fluorescence, at 10 µM, actives lie on both sides
Activity calls are given as the source filed them.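 Rule for the calls: active = fluorescence slope after compound addition differing from the mean of all screened samples at 99.7% confidence, in either direction; inactive = the rest.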
Select the correct class. Options are class 1 = active, class 0 = inactive and nothing else.

MOLECULE: Cc1cccc(Nc2nc(N)nc(CN3CCC(C(N)=O)CC3)n2)c1C
LABEL_CLASS: class 0
//
MOLECULE: CCC(C(=O)OCC(=O)Nc1c(C)n(C)n(-c2ccccc2)c1=O)c1ccccc1 (stereo not given)
LABEL_CLASS: class 0
//
MOLECULE: CC(=O)NC(Cc1cc(C)ccc1C)C(=O)N1CCN(C(=O)Nc2ccc(C(C)=O)cc2)CC1 (stereo not given)
LABEL_CLASS: class 0
//
MOLECULE: CC(=O)c1ccc(OCC(O)CN2CC(C)OC(C)C2)cc1 (stereo not given)
LABEL_CLASS: class 0
//
MOLECULE: CC(C)N(C(=O)N1CCC(c2nc(-c3ccncc3)no2)CC1)C(C)C
LABEL_CLASS: class 0

**Q:** Per the assay record, what outcome was assigned to COC(=O)CN1C(=O)C(O)(CC(=O)c2ccc(Cl)cc2)c2ccccc21 (stereo not given) ?
**A:** class 0

**Q:** Query: recorded result category for Cc1cc(NC(=O)COc2cccc(C)c2C)no1 in this test
**A:** class 0

**Q:** Status in this test for CNS(=O)(=O)c1cccc(C(=O)OCC(=O)c2cc(C)n(-c3ccc4c(c3)OCO4)c2C)c1 ?
**A:** class 1

**Q:** Which outcome did this test record for the molecule CC(C)NC(=O)CSc1nc2ccccc2n1-c1ccccc1 ?
**A:** class 0

**Q:** Check the results log: what was the call for COc1ccc(OC)c(Nc2nc(-c3sc(N)nc3C)cs2)c1 ?
**A:** class 0

====

Test: reduction of polyQ htt aggregates in cells – imaging, exon1htt(103Q)mCFP cells, high-content imaging, primary screen (AID 483);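 note: compound exposure lasted 3 days before fixation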;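 for nuclei count: percent of the per-plate median nuclei count of sample wells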
Conditions: exon1htt(103Q)mCFP cell line, aggregate imaging, at 2 µM; measured here: cell count, toxicity
READOUT: nuclei count (%)
Give bare numbers, in %.

COMPOUND: COc1ccc(S(=O)(=O)N2CCC(C(=O)NCc3ccco3)CC2)cc1
nuclei count [%]: 99.6
//
COMPOUND: NC(=O)CCS(=O)(=O)CCN1CCCCC1
nuclei count [%]: 89.8
//
COMPOUND: COc1ccccc1C(=O)OCn1nnc2ccccc2c1=O
nuclei count [%]: 103
//
COMPOUND: COc1ccccc1-c1nc2n(n1)C(c1ccc(Cl)cc1)C(C(N)=O)=C(C)N2 (stereo unspecified)
nuclei count [%]: 101
//
COMPOUND: CCOc1ccccc1N(CC(=O)N1CCOCC1)S(=O)(=O)c1ccccc1
nuclei count [%]: 100

**Q:** Tell us which nuclei count value is on record for N[C@@H](Cc1ccccc1)c1nnc2sc(SCc3ccccc3)nn12
**A:** 84.8

====

Molecular target: Alpha-2C adrenergic receptor (Homo sapiens) (UniProt P18825)
Experiment: compounds altering alpha2C-coupled GIRK flux – cell-based, HEK293 alpha2C/GIRK1/2, thallium flux, primary screen (AID 624);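 note: slope of fluorescence ratio to pre-addition baseline per second over 15 to 24 s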
Conditions: thallium flux BTC fluorescence, at 10 µM, actives lie on both sides
So I've got a bunch of molecules here, and I need their slope values.
Answers are plain numbers.

Known results for molecules:
MOLECULE: COc1ccc(S(=O)(=O)n2nc(OC(=O)c3ccc(C)cc3)cc2N)cc1
TEST_VALUE: 0.00323
//
MOLECULE: O=S(=O)(NCc1ccc(Cl)cc1)c1cnc[nH]1
TEST_VALUE: 0.00614
//
MOLECULE: CN1CCN(CCCNC(=O)Cn2ncc3c4ccccc4n(C)c3c2=O)CC1
TEST_VALUE: 0.0065

Give one value of slope per listed molecule.
1. O=C(NCC12CC3CC(C1)CC(CNC(=O)N1CCCC1)(C3)C2)N1CCCC1
2. Cc1cc(C)n(-c2ccc(C(=O)Nc3ccc4c(c3)OCCO4)cc2)n1

**A:**
1: 0.00588; 2: 0.00537

Please report slope for every entry that follows.
1. COc1nnc(-c2ccc(C)c(S(=O)(=O)NCCO)c2)c2ccccc12
2. NC(=O)CSc1nnc(-c2cc3ccccc3o2)n1Cc1ccccc1
3. O=C1NC(Cc2c[nH]c3ccccc23)C(=O)N1CCOc1ccccc1 (stereo unspecified)
4. CSc1ccc(-c2nc(CSCC(=O)N3CCOCC3)c(C)o2)cc1

**A:**
1: 0.0039; 2: 0.003; 3: 0.00422; 4: 0.00525

Field: slope. Fill in for each record below.
1. Cn1c(SCc2nnc3n2CCCCC3)nc2ccccc21
2. Cc1cc(C)c2c(n1)nn1c(N3CCN(c4cccc(Cl)c4)CC3)cc(C)nc21

**A:**
[0.00588, 0.00567]

====

Experiment: endothelial E-selectin expression blockers – imaging, HUVEC, immunofluorescence, MLSMR starter and 10KST1 sets, primary screen (AID 487);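 note: signal is fraction of cell area covered by stained E-selectin grains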
Conditions: HUVEC TNFalpha-induced E-selectin immunofluorescence imaging, at 2 µM; stronger effect = higher value
READOUT: inhibition (%)
Numbers only, in %.

COMPOUND: CCn1c(Cc2ccccc2)nnc1SCC(=O)Nc1ccc(N2CCOCC2)c(Cl)c1
inhibition (%): -56.2
--
COMPOUND: CC1(C)NC(=O)N(CC(O)CN2CCCCC2)C1=O (stereo not given)
inhibition (%): 36.5
--
COMPOUND: CCN(C(=O)COC(=O)c1cc(C)n(-c2ccc(F)cc2)c1C)C1CCS(=O)(=O)C1 (stereo not given)
inhibition (%): -35.5
--
COMPOUND: COc1ccc(N2CCN(C(c3cccs3)c3nnnn3C3CCCC3)CC2)cc1 (stereo not given)
inhibition (%): -10.3

**Q:** Query inhibition for CCOc1ccc(-c2cc(CCCC(=O)N3CCN(c4ccc(OC)cc4)CC3)no2)cc1
**A:** -0.1

====

Assay: reduction of polyQ htt aggregates in cells – imaging, exon1htt(103Q)mCFP cells, high-content imaging, primary screen (AID 483);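 note: compound exposure lasted 3 days before fixation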
Conditions: exon1htt(103Q)mCFP cell line, aggregate imaging, at 2 µM; stronger effect = higher value
Record form. Attribute: inhibition of aggregation. Fill in for each entry.
Answers are plain numbers, in %.

Give one value of inhibition of aggregation per listed compound.
1. O=C(c1ccc(Cl)s1)N1CCN(c2nc3ccccc3s2)CC1
2. CN(c1ccccc1C(=O)N1CCN(c2cccc(Cl)c2)CC1)S(C)(=O)=O
3. COC(=O)CSC1=C(C#N)C(c2ccccc2)CC(=O)N1 (stereo not given)
4. COc1ccc(N2CCN(C(=O)COc3ccc4ccccc4c3)CC2)cc1
5. Cc1ccc(NC(=O)CN(c2ccc3c(c2)OCO3)S(=O)(=O)c2c(C)n[nH]c2C)cc1

**A:**
-16.4
3.7
-2.2
7.5
-29.4

====

Test: reduction of polyQ htt aggregates in cells – imaging, exon1htt(103Q)mCFP cells, high-content imaging, primary screen (AID 483);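 note: compound exposure lasted 3 days before fixation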
Details: exon1htt(103Q)mCFP cell line, aggregate imaging, at 2 µM; stronger effect = higher value
Record form. Attribute: inhibition of aggregation. Fill in for each entry.
Answers are plain numbers, in %.

Below, each entry is followed by its recorded inhibition of aggregation result.
COMPOUND: COc1ccc(C(=O)Nc2nncs2)c(OC)c1
TEST_VALUE: -7.4
//
COMPOUND: S=C(c1ccc(-c2cc(Cl)ccc2Cl)o1)N1CCOCC1
TEST_VALUE: -14
//
COMPOUND: O=C(NCCCN1CCOCC1)c1cc(-c2ccc(O)cc2)on1
TEST_VALUE: -5.2
//
COMPOUND: CCN(CC)S(=O)(=O)c1ccc(S(=O)(=O)N(Cc2ccccn2)Cc2ccco2)cc1
TEST_VALUE: -9.2
//
COMPOUND: Cc1ccc(S(=O)(=O)C(C#N)c2nc3ccccc3nc2N2CCCCC2)cc1 (configuration not stated)
TEST_VALUE: 8.3
//
COMPOUND: CC(=O)c1cccc(S(=O)(=O)NCC(c2ccco2)N2CCCCC2)c1 (configuration not stated)
TEST_VALUE: -10
//
COMPOUND: Cc1ccc(N2CC(C)Cn3c2nc2c3c(=O)n(CC(=O)OCc3ccccc3)c(=O)n2C)cc1C (configuration not stated)
TEST_VALUE: 21.6
//
COMPOUND: CCn1c(SCC(=O)c2ccc(OC)cc2)nnc1C(C)NC(=O)c1ccc(OC)cc1 (configuration not stated)
TEST_VALUE: 2.6
//
COMPOUND: CC(C)c1nccn1S(=O)(=O)c1cc(Cl)ccc1Cl
TEST_VALUE: 6.2
//
COMPOUND: COc1ccc(C(C(=O)NC2CCCCC2)N2CCC3(CC2)OCCO3)cc1 (configuration not stated)
TEST_VALUE: -42.7

Please give inhibition of aggregation, item by item, for the list that follows.
1. O=C(c1cc2cc(Cl)cc(Cl)c2oc1=O)N1CCOCC1
2. CCCn1c(=O)c2ccccc2n2c(SCCOc3ccccc3F)nnc12

**A:**
1. -12
2. 4.4

Please state, for each entry, its recorded inhibition of aggregation.
1. CCc1cc2c(CN3CCN(CCO)CC3)cc(=O)oc2cc1O
2. COc1c(S(=O)(=O)n2nc(C)cc2C)ccc(Cl)c1Cl
3. CC1(C)CC(=O)C2=C(C1)NC(=O)CC2c1ccc(N(CCC#N)CCC#N)cc1 (configuration not stated)
4. CCOC(=O)c1ccc(NC(=O)COc2ccc(-n3cnnn3)cc2)cc1

**A:**
1: -12.5; 2: -8.9; 3: -2.1; 4: -2.9

Consider the following items and state reported inhibition of aggregation for each.
1. CCOc1ccc(N(CC(=O)OC)S(=O)(=O)c2ccc(OC)c(OC)c2)cc1
2. CC1CN(C(=O)c2scc3c2OCCO3)CC(C)O1 (configuration not stated)
3. CCn1c(Cc2ccccc2)nnc1SCC(=O)Nc1cc(C)on1
4. CCOC(=O)c1ccc(NC(=O)CSC2=NC(=O)C(CC)C(=O)N2)cc1 (configuration not stated)

**A:**
1. -1.6
2. 0.7
3. 5.6
4. -43.6

# batch size: 2; output inhibition of aggregation per entry
1. O=C(NCC1CCCO1)C1CCC(CNS(=O)(=O)c2ccccc2)CC1 (configuration not stated)
2. CCC(=O)OCCn1c(=O)c2cc3c(=O)n(CCOC(=O)CC)c(=O)c3cc2c1=O

**A:**
-6
-19
